Biological target: Gal(b1-3)GlcNAc(b1-2)Man(a1-3)[Gal(b1-3)GlcNAc(b1-2)Man(a1-6)]Man(b1-4)GlcNAc(b1-4)[Fuc(a1-6)]GlcNAc
Experiment: glycan array binding signal (z-score within array); higher = stronger binding
Conditions: glycan notation: IUPAC condensed, linker removed
This is one part of a sample in which the strongest signals are shown more often than they occur.
Endpoint name: glycan array binding signal (z-score)

[[record]]
binder = "UEA-I (Ulex europaeus), P22972 (protein) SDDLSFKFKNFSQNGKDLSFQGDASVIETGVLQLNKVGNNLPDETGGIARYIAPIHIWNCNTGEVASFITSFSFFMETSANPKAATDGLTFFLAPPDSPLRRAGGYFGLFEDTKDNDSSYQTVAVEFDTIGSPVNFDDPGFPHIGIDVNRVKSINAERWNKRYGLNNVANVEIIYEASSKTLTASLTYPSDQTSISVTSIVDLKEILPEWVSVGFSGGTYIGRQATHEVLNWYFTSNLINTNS"
result_value = -0.16

